Entries and their measured growth follow.
test system: SR leukemia; experiment: NCI-60 one-dose screen, 48 h (100 = growth as untreated, 0 = no growth, -100 = all killed); conditions: 10 µM unless noted
The panel holds about 83,000 compounds, 20% with a hit somewhere; the sample as a whole holds those more often.
Hi! Could you send only the number? It should be in %, unit omitted.

Recorded growth, per entry:
>  <substance smiles>
O=C(NNc1nc2cc(F)cc(F)c2n2cccc12)c1cccnn1

>  <recorded endpoint>
growth

>  <data value>
14.8

$$$$
>  <substance smiles>
N#Cc1c(-c2cccs2)cc(-c2cnccn2)nc1SCC(=O)N/N=C/c1cccs1

>  <recorded endpoint>
growth

>  <data value>
74.7

$$$$
>  <substance smiles>
O=C(/C=C/c1cccc(F)c1)c1cccc(OCCCCOc2cccc(C(=O)/C=C/c3cccc(F)c3)c2)c1

>  <recorded endpoint>
growth

>  <data value>
84.8

$$$$
>  <substance smiles>
O=C(/C=C/c1cc(Cl)ccc1Cl)Nc1ncc(Cc2ccc(Cl)cc2)s1

>  <recorded endpoint>
growth

>  <data value>
14

$$$$
>  <substance smiles>
CCOC(=O)c1c(NC(=O)c2ccc(C(F)(F)F)cc2)sc2c3c(ccc12)OCN(C)C3

>  <recorded endpoint>
growth

>  <data value>
-29.8

$$$$

Lab request: please report growth under test system SR leukemia for `COc1ccc2c(c1)c(/C=N/Nc1ccnc3cc(Cl)ccc13)cn2C`
-22.6

Lab request: please report growth under test system SR leukemia for `O=C(COc1ccc(/C=C2\C(=O)Nc3ccc(Cl)cc32)cc1)Nc1ccc(Cl)cc1`
44.9

Lab request: please report growth under test system SR leukemia for `COc1ccc2c(c1)c(-c1nc(N)nnc1-c1c[nH]c3ccccc13)cn2C`
14.8

Lab request: please report growth under test system SR leukemia for `CN1CCN(Cc2ccc(NC(=O)c3cncc(C#Cc4cnc5ccc(N6CCOCC6)nn45)c3)cc2C(F)(F)F)CC1`
-28.4

* * *

Entries and their measured growth follow.
System: K-562 leukemia
Experiment: NCI-60 one-dose screen, 48 h (100 = growth as untreated, 0 = no growth, -100 = all killed)
Conditions: 10 µM unless noted
Method: Cells are grown in 96 well plates and exposed to the test compound for 48 hours. Compounds are tested at a single concentration, which is 10^-5 M for most compounds. The reported endpoint is percent growth (GI% or GIPRCNT), where numbers from 0 - 100% represent growth inhibition, and numbers from -100% - 0 represent cell death. For example, a value of 40 represents 60% growth inhibition. A value of 0 means no net growth occurred over the course of the experiment. […]
Compounds without any hit were thinned out: in the full panel of roughly 83,000, 20% have a hit. Calls of active or inactive are those of the source. Rule for the calls: active = growth percent below 10; inactive = the rest.

Item under review: `COc1ccc([C@@H]2C(=O)N(c3cc(OC)c(OC)c(OC)c3)[C@H]2c2ccc(OC)c(O)c2)cc1` . Reported growth?
12.7% (inactive)

Item under review: `C#Cc1nc(/C=C/C(=O)NO)cs1` . Reported growth?
10.2% (inactive)

* * *

Entries and their measured growth follow.
tested on: A498 renal; assay: NCI-60 one-dose screen, 48 h (100 = growth as untreated, 0 = no growth, -100 = all killed); conditions: 10 µM unless noted
The panel holds about 83,000 compounds, 20% with a hit somewhere; the sample as a whole holds those more often.
Hi! Could you send only the number? It should be in %, unit omitted.

>  <compound>
CCOC(=O)c1c(NC(=O)c2cccc(C(F)(F)F)c2)sc2c3c(ccc12)OCN(C)C3

>  <display unit>
%

>  <growth>
84.3

$$$$
>  <compound>
CCc1nnc(NC(=O)c2cc(-c3ccc(Cl)cc3Cl)oc2C)s1

>  <display unit>
%

>  <growth>
97.4

$$$$
>  <compound>
NCCNC(=O)c1cccc(COc2ccccc2NC(=O)c2cc(Cl)c(Cl)[nH]2)c1

>  <display unit>
%

>  <growth>
81.5

$$$$
>  <compound>
O=C(N/N=C\c1ccc([N+](=O)[O-])cc1)c1ccc2nc(-c3ccc(Br)cc3)[nH]c2c1

>  <display unit>
%

>  <growth>
21.4

$$$$
>  <compound>
N#C/C(=C\c1ccc(-c2ccc(Cl)cc2)o1)C(=O)Nc1ncc(Cc2ccc(Br)cc2)s1

>  <display unit>
%

>  <growth>
-25.5

$$$$
>  <compound>
CC/C(=C(/c1ccc(Cl)cc1)c1ccc(OCCN)cc1)c1ccccc1

>  <display unit>
%

>  <growth>
92.9

$$$$
>  <compound>
CC(C)(C)c1cc(NC(=O)Nc2ccc(-c3cn4c5c(sc4n3)CCc3c[nH]cc3-5)cc2)no1

>  <display unit>
%

>  <growth>
-17.9

$$$$
>  <compound>
CC[C@]12CC(C(=O)OC)=C3Nc4ccccc4[C@@]34CCN(C14)[C@@H]1c3cc4c(cc3O[C@@H]1[C@H]2O)NC1=C(C(=O)OC)C[C@@]2(CC)C3N(CC[C@@]143)C[C@H]1O[C@H]12 (stereo partly drawn)

>  <display unit>
%

>  <growth>
-46.1

$$$$
>  <compound>
O=C1[C@H]2Cc3c([nH]c4ccccc34)[C@H](c3ccc(Cl)cc3)N2C(=O)CN1C1CCN(CC2CCCCC2)CC1

>  <display unit>
%

>  <growth>
80.4

$$$$
>  <compound>
Cc1nc(/N=C(N)/N=C(\N)c2cccc(Br)c2)sc1C

>  <display unit>
%

>  <growth>
43.5

$$$$

Item under review: `O=C(CCCCCC/C=C\c1csc(Br)n1)NO` . Reported growth?
87.1

Item under review: CCOC(=O)C1=C(C)NC(C)=C(C(=O)OC(C)C)C1c1cccc(C#N)c1 (stereo not drawn) . Reported growth?
83.9

Item under review: `CCCNNC(=O)c1ccc(-c2ccc(NC(=O)CCCCCCC(=O)N[C@H](C(=O)N3C[C@H](O)C[C@H]3C(=O)N[C@@H](C)c3ccc(-c4scnc4C)cc3)C(C)(C)C)cc2)cc1` . Reported growth?
-14.4

Item under review: `COc1ccc2[nH]cc(/C=N/Nc3ccnc4cc(Cl)ccc34)c2c1` . Reported growth?
-98.6

Item under review: CCCC/C(=C\c1ccc(O)c(O)c1)C(=O)NC(Cc1ccccc1)C(=O)C(=O)NCCc1ccc(OC)cc1 (stereo not drawn) . Reported growth?
85.7

Item under review: `Clc1ccc(CSc2nnc(-c3ccc(Cl)cc3)n2-c2ccccc2)cc1` . Reported growth?
68

Item under review: `CCOc1cccc(/C(N)=N/C(N)=N/c2nc3ccccc3s2)c1` . Reported growth?
115

Item under review: `O=C(/C=C/c1ccc(Cl)c(Cl)c1)Nc1ncc(Cc2ccc(Cl)c(Cl)c2)s1` . Reported growth?
99.8
